inhibition values for the molecules below.
assay: 384-well plate pilot, post-Golgi transport modulator project, inhibition of yeast transport mutant growth (AID 636); conditions: absorbance 615 nm, about 18 h, stronger effect = higher value
Could you give me the number in %? Just the number is fine.

molecule | quantity-unit | observed
Cc1nn(-c2ccc(F)cc2)c2nc(N)c(C#N)c(-c3cccs3)c12 | % | -0.79
O=C(OCc1nnc(-c2ccc(Cl)cc2)o1)c1ccc(=O)n(Cc2ccccc2)n1 | % | -4.81
CSc1nnc2n(CCc3ccccc3)c(=O)c3c4c(sc3n12)CCCC4 | % | -1.45
COc1ccc(-c2noc(CCCC(=O)O)n2)cc1 | % | -6.4
COc1ccc(Cl)cc1Nc1nc(C)cc(=O)[nH]1 | % | -3.68

Now for a further molecule.
Qu. Fill in: inhibition of Cc1cccc(-n2nnc(C(=O)NCc3ccccc3)c2N)c1 is ___
Ans. 0.92

====

viability values for the compounds below.
assay: reversal of MRP1-mediated doxorubicin resistance, pilot screen, H69AR cells, doxorubicin co-treatment (AID 601); conditions: H69AR cells + 2 uM doxorubicin, CellTiter-Glo, 72 h; measured here: viability with 2 uM doxorubicin; at 10 µM; stronger effect = lower value
Could you give me the number in %? Just the number is fine.

compound | observed
CCOC(=O)C1CCN(c2nc3ccccc3nc2C(C#N)C(=O)OCCOC)CC1 (stereo unspecified) | 51.7
Cc1ccc(S(=O)(=O)N2CCN(C(=O)CN3C(=O)NC4(CCOc5ccccc54)C3=O)CC2)cc1 (stereo unspecified) | 99.8
CCN(c1c(C)n(C)n(-c2ccccc2)c1=O)S(C)(=O)=O | 88.7
O=C(c1ccccc1Cl)N1CCc2ccccc2C1 | 81.5
CCn1c(SCC(=O)N2CCCc3ccccc32)nnc1-c1cccs1 | 82.2

Qu. Fill in: viability of CCOc1ccccc1C1NC(=O)NC(C)=C1C(=O)OC1CCCC1C (stereo unspecified) is ___
Ans. 75.8

====

assay: SK-BR-3 cell growth inhibitors, pilot screen, 24 h, human (AID 572); conditions: SK-BR-3 viability, CellTiter-Glo luminescence, at 10 µM, stronger effect = lower value;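 also: compound exposure lasted between 18 and 24 h rather than exactly 24 h; 100% = carrier-treated control wells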
viability values for the compounds below.
Could you give me the number in %? Just the number is fine.

compound | viability / %
O=C1CCC(=O)N1OCCCCOc1ccccc1 | 123
CC(=O)c1ccc(OCC(O)CN2CC(C)OC(C)C2)cc1 (centres undefined) | 108
CCCCn1cnc2c(cnn2-c2ccc(Cl)cc2)c1=O | 94.5
O=S(=O)(NCCSc1ccccc1)c1cccs1 | 95
Nn1c(SCC(=O)Nc2ccc3c(c2)OCO3)nnc1C1CC1 | 102

Qu. Fill in: viability of O=C(O)c1[nH]c2ccc(Cl)cc2c1CC(=O)N1CCN(C(=O)c2ccco2)CC1 is ___
Ans. 83.5

Qu. Fill in: viability of CCN(CC)c1ccc(-c2c(C#N)c(N)nc(OC)c2C#N)cc1 is ___
Ans. 75.5

====

assay: 384-well plate pilot, post-Golgi transport modulator project, inhibition of yeast transport mutant growth (AID 636); conditions: absorbance 615 nm, about 18 h, stronger effect = higher value
inhibition values for the molecules below.
Could you give me the number in %? Just the number is fine.

molecule | inhibition [%]
CCOC(=O)c1cn(CC)c2cc(N3CCOCC3)c(F)cc2c1=O | 2.16
CCNc1nc(N2CCCCC2)nc(-n2nnc(C(=O)OCC)c2C)n1 | -6.45
O=C(Nc1ccccc1)c1ccc(NCC2CCCO2)c(S(=O)(=O)N2CCOCC2)c1 (stereo not drawn) | -3.16

Qu. Fill in: inhibition of CCc1nnc(NC(=O)c2ccc(COc3ccc(C)cc3)o2)s1 is ___
Ans. -3.01

====

test: reversal of MRP1-mediated doxorubicin resistance, pilot screen, H69AR cells, doxorubicin co-treatment (AID 601); details: H69AR cells + 2 uM doxorubicin, CellTiter-Glo, 72 h; measured here: viability with 2 uM doxorubicin; at 10 µM; stronger effect = lower value
The label class 1 is reserved for viability strictly under 90%; class 0 covers values equal to or above it.

Example cases with answers are listed next.
compound | label
CN(Cc1ccco1)C(=O)Cn1c(=O)oc2cc(S(=O)(=O)NCc3ccccc3)ccc21 | class 0
O=C(Nc1cccc(C(=O)N2CCOCC2)c1)c1cccnc1 | class 0

Qu. Strictly below 90%: is that where viability of CC(=O)N1CCN(c2ccc(N=Cc3c(O)n(Cc4ccccc4)c(=O)[nH]c3=O)cc2)CC1 sits?
Ans. class 0

Qu. Strictly below 90%: is that where viability of O=c1c2ccccc2cnn1-c1nc2ccccc2s1 sits?
Ans. class 1

Qu. Strictly below 90%: is that where viability of N#CC1=C(N)OC(c2ccccc2)=C(C#N)C1c1ccc2c(c1)OCO2 (stereo unspecified) sits?
Ans. class 1

====

assay: HUVEC growth inhibition – cell-based, human, primary screen (AID 575); conditions: HUVEC proliferation, CellTiter-Glo luminescence, 72 h; at 10 µM; stronger effect = lower value;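 also: 100% = median of untreated cell wells with 0.1% DMSO on each plate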
The label class 1 is reserved for viability strictly under 90%; class 0 covers values equal to or above it.

compound | label
Cc1ccc(OC(=O)NC2CCS(=O)(=O)C2)cc1C (stereo not given) | class 0
CCN1CCN(Cc2ccc(NC(=O)Nc3ccc(SC)cc3)cc2)CC1 | class 1
Cc1cccc(COc2ccc(/C(O)=C3\C(=O)C(=O)N(CCN(C)C)C3c3ccncc3)cc2)c1 (stereo not given) | class 0
O=C1CN(Cc2ccccc2)C(=NCc2ccco2)S1 | class 0
O=C(CCN1C(=O)C2C3C=CC(C3)C2C1=O)NCCc1ccccc1Cl (stereo not given) | class 0
Cc1ccc(S(=O)(=O)Cc2ccc(C(=O)NCCCN3CCN(C)CC3)o2)cc1 | class 0
COc1cc(C2C(C#N)=C(N)OC3=C2C(=O)CC(C)(C)C3)ccc1OC(=O)N1CCOCC1 (stereo not given) | class 0

Then this compound:
Qu. Strictly below 90%: is that where viability of Cc1sc2nc(CN3CCN(S(=O)(=O)c4cccc5nonc45)CC3)[nH]c(=O)c2c1C sits?
Ans. class 1

====

inhibition values for the molecules below.
test: 384-well plate pilot, post-Golgi transport modulator project, inhibition of yeast transport mutant growth (AID 636); settings: absorbance 615 nm, about 18 h, stronger effect = higher value
Could you give me the number in %? Just the number is fine.

molecule | measurement-name | observed
O=C1C2CCCN2C(c2ccc(Cl)cc2)N1c1nccs1 (stereo unspecified) | inhibition | -2.24
COc1ccc(CCNC(=O)c2ccncc2)cc1OC | inhibition | -6.27
CCOC(=O)c1sc(N2C(=O)C(O)=C(C(=O)c3ccco3)C2c2ccccc2)nc1C (stereo unspecified) | inhibition | -4.93
Cc1ccc(C(=O)CSc2nnc(-c3cccnc3)n2N)cc1 | inhibition | -0.93
Cc1cccc2sc(NC(=O)CN(C)S(=O)(=O)c3cccs3)nc12 | inhibition | 0.39

Qu. Fill in: inhibition of CCOC(=O)c1[nH]c(C)c(C(=O)N(C)C)c1C is ___
Ans. -5.79

Qu. Fill in: inhibition of COc1ccc(-c2c(C(F)(F)F)oc3c(CN4CCN(C)CC4)c(O)ccc3c2=O)cc1 is ___
Ans. -2.67

Qu. Fill in: inhibition of O=C(Cn1nnc(-c2ccc(CN3CCOCC3)cc2)n1)NC1CCCCC1 is ___
Ans. -5.73

Qu. Fill in: inhibition of O=C(C1CCCN(S(=O)(=O)c2cccs2)C1)N1CCc2ccccc2C1 (stereo unspecified) is ___
Ans. -4

Qu. Fill in: inhibition of CC(C)(C)c1cc(C(=S)N2CCN(CCO)CC2)cc(C(C)(C)C)c1O is ___
Ans. -6.13

Qu. Fill in: inhibition of N#Cc1c(N2C(=O)C3C4C=CC(C4)C3C2=O)sc2c1CCC2 (stereo unspecified) is ___
Ans. -5.07

====

test: 384-well plate pilot, post-Golgi transport modulator project, inhibition of yeast transport mutant growth (AID 636); settings: absorbance 615 nm, about 18 h, stronger effect = higher value
measurement-name: inhibition (%)
Could you give me the number in %? Just the number is fine.

Example cases with answers are listed next.
compound | inhibition, %
Cc1nc2ccccc2cc1C(=O)NCc1ccco1 | -4.93
CCOC(=O)CSc1cn2c(n1)CCC2 | -0.79
CCCCCC1CC(CC(C)C(=O)Nc2nncs2)C(=O)O1 (centres undefined) | -5.6
O=C(O)C1CC=CCC1C(=O)Nc1ccc(S(=O)(=O)N2CCCc3ccccc32)cc1 (centres undefined) | -3.73
COC(=O)C1=C(C)Nc2nnnn2C1c1cccs1 (centres undefined) | 2.84
CN(C)C(=O)Cn1c(SCC(=O)NC2CCCCC2)nc2ccccc21 | -6.08
O=C1NC2=C(C(=O)CCC2)C(c2ccc3ncccc3c2)N1 (centres undefined) | -1.64
CC(C)(C)NC(=O)C(c1ccco1)N(C(=O)Cn1nnc(-c2ccc(F)cc2)n1)c1ccccc1F (centres undefined) | -5.54
O=c1c2cc(Cl)ccc2[nH]c(=S)n1Cc1ccco1 | -8.13
Cc1nc(N)c(C#N)c(-c2cccnc2)c1C | -2.4

Qu. Fill in: inhibition of Cc1cc(C)nc(SCC(=O)Nc2ncc3c(n2)CCCC3=O)n1 is ___
Ans. -1.17

Qu. Fill in: inhibition of COC(=O)C1=C(C)NC(=O)C1(NC(=O)c1cccnc1)C(F)(F)F (centres undefined) is ___
Ans. -2.5

Qu. Fill in: inhibition of CCNS(=O)(=O)c1c(C)cc(N2CCCC2=O)cc1C is ___
Ans. -3.87

Qu. Fill in: inhibition of Cc1c(C(=O)O)oc2ccc(S(=O)(=O)NCCC3=CCCCC3)cc12 is ___
Ans. -3.16

Qu. Fill in: inhibition of CCCC(=O)Nc1cc(C)c(NC(=O)c2ccccn2)cn1 is ___
Ans. -5.06

Qu. Fill in: inhibition of c1ccc(-c2nnc(OCCN3CCOCC3)c3ccccc23)cc1 is ___
Ans. -4.08

Qu. Fill in: inhibition of CC(C)(C)n1nc2c(c1NC(=O)COc1ccc(Cl)cc1)CSC2 is ___
Ans. -5

Qu. Fill in: inhibition of Cc1ccc(NC2c3ncccc3C(=O)N2C2CCCCC2)cc1C (centres undefined) is ___
Ans. -3.78

Qu. Fill in: inhibition of O=C(NCc1ccco1)C1CCN(C(=O)c2cc3sccc3n2Cc2ccc(F)cc2)CC1 is ___
Ans. -5.87

Qu. Fill in: inhibition of CC(C)(C)OC(=O)N1CCCC1C(=O)N1CCc2ccccc21 (centres undefined) is ___
Ans. 1.17

Qu. Fill in: inhibition of O=C(COc1ccccc1Cl)NCc1ccco1 is ___
Ans. -0.81

Qu. Fill in: inhibition of Cc1ccc(NC(=O)C2CCCN2S(=O)(=O)c2cccc3cccnc23)cc1F (centres undefined) is ___
Ans. -4

Qu. Fill in: inhibition of Cc1ccc(Nc2cc(-n3nc(C)cc3C)ncn2)cc1 is ___
Ans. -0.26

Qu. Fill in: inhibition of Cc1cc(NC(=O)CSc2nc3ccsc3c(=O)n2NC(=O)c2ccccc2)no1 is ___
Ans. -0.93
